biological target: HLA-A2 (Homo sapiens, UniProt P04439, D140Y/D185E/D98H/E176V/E277Q/G131W/G231S/I119V/I121R/I166T/I218V/L300P/L318F/N151K/N90K/P208A/P217A/Q86G/Q94H/R138H/R169H/T345S); construct: using the untransfected T2 cell line (for HLA-A2); endogenous in cells; host or cells: untransfected T2 cell line; assay: HLA assembly assay, binding to HLA-A2 (untransfected T2 cell line)
assay.endpoint: binding to HLA-A2 in the HLA assembly assay

# polymer.sequence, test.value
records = [
    ("GIYKELEDL [ls19, LSA-1 peptide, position 1801, HLA-A2]", "bind"),
    ("HIFDGDNEI [ls23, LSA-1 peptide, position 1883, HLA-A2]", "bind"),
    ("YISFYFILV [ls11]", "bind"),
    ("LLMDCSGSI [tr29, TRAP peptide, position 51, HLA-A2]", "bound"),
    ("ILYISFYFI [ls10]", "bind"),
]
